- test target: Fyn (UniProt P06241)
- Sequence (P06241 whole entry, looked up): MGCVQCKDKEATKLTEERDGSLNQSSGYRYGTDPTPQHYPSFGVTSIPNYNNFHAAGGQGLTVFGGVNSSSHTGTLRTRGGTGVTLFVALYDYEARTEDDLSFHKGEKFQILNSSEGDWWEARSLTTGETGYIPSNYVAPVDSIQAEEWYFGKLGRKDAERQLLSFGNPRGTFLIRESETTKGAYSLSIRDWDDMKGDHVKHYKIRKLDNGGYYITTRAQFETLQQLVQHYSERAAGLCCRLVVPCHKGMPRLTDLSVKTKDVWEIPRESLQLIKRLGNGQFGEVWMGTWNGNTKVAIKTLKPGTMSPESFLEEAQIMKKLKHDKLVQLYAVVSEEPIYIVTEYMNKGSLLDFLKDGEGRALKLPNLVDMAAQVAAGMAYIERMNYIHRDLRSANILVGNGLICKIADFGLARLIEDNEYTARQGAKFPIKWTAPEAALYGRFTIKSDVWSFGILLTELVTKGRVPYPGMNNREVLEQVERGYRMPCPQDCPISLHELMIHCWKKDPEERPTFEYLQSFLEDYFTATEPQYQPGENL
- experimental details: phosphorylation enrichment, bacterial display (enrichment ratio); higher = better substrate or ligand; peptides without Tyr show the background;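 further: 11-residue human phosphosite peptides and single-mutation variants displayed on the E. coli surface, counted by deep sequencing, each peptide's frequency after selection divided by its frequency in the unselected input library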;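 further: frequency after pTyr selection over input frequency; kinase dosed for 20-30% of maximal phosphorylation in three min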
Record true (1) whenever phosphorylation enrichment is at 0.6 or higher; record false (0) when lower.

{"construct sequence": "DLDATYRPMYS [JUP_Y701_M697L]", "class name": "false (0)"}
{"construct sequence": "DSDTDYGSGFP [RNASEH2A_Y206_L202S_YF]", "class name": "false (0)"}
{"construct sequence": "RGFRVCFTPDS [PTPRF_Y450_Y450C_YF]", "class name": "false (0)"}
{"construct sequence": "LTDLRYKVSGL", "class name": "false (0)"}
{"construct sequence": "MNKNAYHNVTA [ST3GAL6_Y306]", "class name": "false (0)"}
{"construct sequence": "LFQAKYQIRYR [CRLF1_Y272]", "class name": "false (0)"}
{"construct sequence": "HSDYQYGQRSQ [PKP2_Y168_S169G]", "class name": "false (0)"}
{"construct sequence": "KGIQLYDTPFE [SHB_Y297_YF]", "class name": "true (1)"}
{"construct sequence": "AVRVFYRKCPR [EPHB2_Y194]", "class name": "false (0)"}
{"construct sequence": "RLSARYFQGDL [PDK3_Y337_Y334S]", "class name": "false (0)"}
{"construct sequence": "RSACTYLAPHL [PLK3_Y615_S618P]", "class name": "true (1)"}
{"construct sequence": "LFSNAYLNDLA [ALDH1A1_Y119_YF]", "class name": "true (1)"}
{"construct sequence": "MSRLKYPVSQQ [BTK_Y375_I370M]", "class name": "false (0)"}
{"construct sequence": "EMFNPCFGLFE [NEDD4L_Y679_Y679C_YF]", "class name": "false (0)"}
{"construct sequence": "ADARMYGVLLW [PLP1_Y207_P211L]", "class name": "true (1)"}
{"construct sequence": "VITDFYVDMKF [MPP4_Y567_YF]", "class name": "false (0)"}
{"construct sequence": "SLKEFYGEDAK [ALDH3A1_Y272]", "class name": "false (0)"}
{"construct sequence": "RPSGRYPVARR [SHANK3_Y1569]", "class name": "true (1)"}
{"construct sequence": "MSYDRYMAICH [OR2A5_Y123]", "class name": "false (0)"}
{"construct sequence": "HAVFVCDICHV [TWNK_Y508_Y508C_YF]", "class name": "false (0)"}
{"construct sequence": "ITKNPYDPPGR", "class name": "false (0)"}
{"construct sequence": "EFEGLYQEGGG [TMEM159_Y159]", "class name": "true (1)"}
{"construct sequence": "SLGSPYGQPPR [PDLIM4_Y137]", "class name": "false (0)"}
{"construct sequence": "ARDVIYIIIPA [FRKtide_2014]", "class name": "true (1)"}
{"construct sequence": "VASSLYDILAR [GLB1_Y294]", "class name": "true (1)"}
{"construct sequence": "ATRKAYGQALA [TKT_Y321]", "class name": "false (0)"}
{"construct sequence": "LEITWYPFDVE [RIPOR2_Y316]", "class name": "true (1)"}
{"construct sequence": "VDTPMYATMQR [TPO_Y55_A53P]", "class name": "true (1)"}
{"construct sequence": "NHYKIHNLCAE [PTEN_Y68_Y68H]", "class name": "false (0)"}
{"construct sequence": "VQQVIYATGAL [MYH7_Y422]", "class name": "true (1)"}
{"construct sequence": "RHNEIYEIKVD [LGR5_Y387]", "class name": "true (1)"}
{"construct sequence": "ATQDDYVLEVR [PTPRZ1_Y2179]", "class name": "true (1)"}
{"construct sequence": "QNRELYSEGLG [CNKSR1_Y665]", "class name": "false (0)"}
{"construct sequence": "RGFRVYFTPDS [PTPRF_Y450_YF]", "class name": "false (0)"}
{"construct sequence": "PIPIKYKAMKK [MYD88_Y257_L252P]", "class name": "false (0)"}
{"construct sequence": "PVGVLYKVKVF [PTS_Y128_YF]", "class name": "true (1)"}
{"construct sequence": "LLREWYVQDPF [SIX3_Y225_L226V_YF]", "class name": "false (0)"}
{"construct sequence": "FSCLPCGRLAF [SLC52A2_Y305_Y305C_YF]", "class name": "false (0)"}
{"construct sequence": "ADARMCGVLPW [PLP1_Y207_Y207C]", "class name": "false (0)"}
{"construct sequence": "RSACTYLASHL [PLK3_Y615]", "class name": "false (0)"}
{"construct sequence": "KRAAIYNPVIF [RHO_Y301_S297R_YF]", "class name": "true (1)"}
{"construct sequence": "LRAGVYREKDQ [DNM2_Y626_P627R]", "class name": "false (0)"}
{"construct sequence": "ARQEEYSAMRD [KRAS_Y64_G60R]", "class name": "false (0)"}
{"construct sequence": "CEDGTYSPEIS [PTDSS1_Y424]", "class name": "false (0)"}
{"construct sequence": "CTTIHYNFMCN [TP53_Y234_Y236F]", "class name": "false (0)"}
{"construct sequence": "DLDTEYGSGFP [RNASEH2A_Y206_D205E_YF]", "class name": "true (1)"}
{"construct sequence": "YSQNICIQNRN [PKP2_Y631_Y631C]", "class name": "false (0)"}
{"construct sequence": "PFTRNYYVQAV [CYBA_Y87_R90Q]", "class name": "false (0)"}
{"construct sequence": "ETDTRYFDEEF [AKT1_Y437]", "class name": "false (0)"}
{"construct sequence": "ILCTVYAFKMR [GRM3_Y754_T758M]", "class name": "false (0)"}
{"construct sequence": "LQLLGHRPVFS [CHST6_Y358_Y358H_YF]", "class name": "true (1)"}
{"construct sequence": "ATPKGYERDAS [OTC_Y223_P225R]", "class name": "false (0)"}
{"construct sequence": "CDFKKYGKGLR [ZNF445_Y433_Y428C_YF]", "class name": "false (0)"}
{"construct sequence": "FEGAIYRKDVG [GART_Y417]", "class name": "false (0)"}

====

- test target: EPHB2 (UniProt P29323)
- Sequence (P29323 whole entry, looked up): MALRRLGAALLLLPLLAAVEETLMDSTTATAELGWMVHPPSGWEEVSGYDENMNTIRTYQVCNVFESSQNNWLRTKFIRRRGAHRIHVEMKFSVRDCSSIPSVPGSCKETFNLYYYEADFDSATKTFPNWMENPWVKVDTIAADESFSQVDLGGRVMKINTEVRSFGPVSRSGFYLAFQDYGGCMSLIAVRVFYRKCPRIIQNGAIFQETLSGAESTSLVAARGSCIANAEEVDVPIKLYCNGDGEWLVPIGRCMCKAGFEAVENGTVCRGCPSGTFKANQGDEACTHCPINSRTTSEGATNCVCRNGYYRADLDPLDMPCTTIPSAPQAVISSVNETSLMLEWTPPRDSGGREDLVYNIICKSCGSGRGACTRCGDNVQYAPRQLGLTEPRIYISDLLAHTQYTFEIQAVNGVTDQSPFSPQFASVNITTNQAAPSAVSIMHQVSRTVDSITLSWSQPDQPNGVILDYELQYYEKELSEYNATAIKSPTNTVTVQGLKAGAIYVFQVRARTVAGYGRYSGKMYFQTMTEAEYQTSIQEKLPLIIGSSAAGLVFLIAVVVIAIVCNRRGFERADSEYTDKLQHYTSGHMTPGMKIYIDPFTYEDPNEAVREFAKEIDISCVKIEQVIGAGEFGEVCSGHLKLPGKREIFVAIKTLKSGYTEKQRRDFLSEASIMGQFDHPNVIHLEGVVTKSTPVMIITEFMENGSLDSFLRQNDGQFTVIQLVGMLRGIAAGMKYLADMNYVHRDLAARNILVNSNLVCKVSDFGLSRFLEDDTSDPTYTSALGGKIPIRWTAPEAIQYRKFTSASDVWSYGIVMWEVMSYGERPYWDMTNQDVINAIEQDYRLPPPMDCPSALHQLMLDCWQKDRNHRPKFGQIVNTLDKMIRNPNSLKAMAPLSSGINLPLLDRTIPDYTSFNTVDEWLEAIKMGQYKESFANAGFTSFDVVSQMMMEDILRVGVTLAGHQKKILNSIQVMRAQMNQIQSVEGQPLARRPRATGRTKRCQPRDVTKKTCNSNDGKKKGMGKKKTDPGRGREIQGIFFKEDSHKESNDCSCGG
- experimental details: phosphorylation enrichment, bacterial display (enrichment ratio); higher = better substrate or ligand; peptides without Tyr show the background
Documented phosphorylation enrichment across a set of sequences

{"construct sequence": "SEKISYVYMKR [SSX7_Y48_L43S]", "phosphorylation enrichment": 0.504}
{"construct sequence": "EVASVYQSYQP [MAVS_Y92]", "phosphorylation enrichment": 0.622}
{"construct sequence": "QDDTVYMGKVI [DCTN1_Y1244_T1249I]", "phosphorylation enrichment": 0.841}
{"construct sequence": "VTGWGYRKLRD [F11_Y521]", "phosphorylation enrichment": 0.517}
{"construct sequence": "CEDGTYSPEIS [PTDSS1_Y424]", "phosphorylation enrichment": 0.578}
{"construct sequence": "DALDNYVIRGV [PCCA_Y473]", "phosphorylation enrichment": 0.583}
{"construct sequence": "GRTNIYKNKKD [SLC26A3_Y520]", "phosphorylation enrichment": 0.393}
{"construct sequence": "IIGNGYFFRVF [MYBPC3_Y1135_YF]", "phosphorylation enrichment": 0.461}
{"construct sequence": "VSGIPYGQPKQ [NEU1_Y251]", "phosphorylation enrichment": 0.323}
{"construct sequence": "LTGIAYSLPHW [SLC22A14_Y291]", "phosphorylation enrichment": 0.94}
{"construct sequence": "TGFRPYVCPFD [YY1_Y383_D380Y_YF]", "phosphorylation enrichment": 0.978}
{"construct sequence": "STKELYEKYMI", "phosphorylation enrichment": 0.594}
{"construct sequence": "LERDIYNREEF [HLA-DPB1_Y59_Y57D]", "phosphorylation enrichment": 0.718}
{"construct sequence": "MSYDRYMAICH [OR2A5_Y123]", "phosphorylation enrichment": 0.704}
{"construct sequence": "GLAELYEYKKK [CKAP5_Y1854]", "phosphorylation enrichment": 0.397}

====

- System: AncSZ
- experimental details: phosphorylation enrichment, bacterial display (enrichment ratio); higher = better substrate or ligand; peptides without Tyr show the background
Record true (1) whenever phosphorylation enrichment is at 0.6 or higher; record false (0) when lower.

{"construct sequence": "QTEAPYRFIYM [PTPN11_Y511_Q510P]", "test target": "AncSZ", "class name": "true (1)"}
{"construct sequence": "FTRNYYVWAVL [CYBA_Y88_R90W]", "test target": "AncSZ", "class name": "true (1)"}
{"construct sequence": "IDDNQYAYLKA [HNF4A_Y286_E285Q]", "test target": "AncSZ", "class name": "true (1)"}
{"construct sequence": "YLAAIYPTVGQ [NF1_Y2508_T2507I]", "test target": "AncSZ", "class name": "true (1)"}
{"construct sequence": "IPGVEYLVSII [TNC_Y1775]", "test target": "AncSZ", "class name": "true (1)"}
{"construct sequence": "QMQAAYQKVVA [HBD_Y131]", "test target": "AncSZ", "class name": "false (0)"}
{"construct sequence": "FSKRIYKGMVA [PCDH15_Y931]", "test target": "AncSZ", "class name": "false (0)"}
{"construct sequence": "AHPIIYEIIEA [PYKtide_E_2014]", "test target": "AncSZ", "class name": "true (1)"}
{"construct sequence": "WIGRKYKKVRF [F8_Y442_R437W]", "test target": "AncSZ", "class name": "false (0)"}
{"construct sequence": "LIDGYYRLTED [JAK2_Y373_A377E]", "test target": "AncSZ", "class name": "true (1)"}
{"construct sequence": "IKELTYQMEED [MYH7_Y1852_T1854M]", "test target": "AncSZ", "class name": "true (1)"}
{"construct sequence": "ANFAKYGNPNE [BCHE_Y505]", "test target": "AncSZ", "class name": "false (0)"}
{"construct sequence": "AEDKPYAELWM [MPI_Y46]", "test target": "AncSZ", "class name": "true (1)"}
{"construct sequence": "KEGSAYGSQSV [NFKB2_Y868_D865G]", "test target": "AncSZ", "class name": "false (0)"}
